Entry source: ChEMBL document CHEMBL1150835

# protocol: Cytotoxicity against human HepG2 cells assessed as decrease in proliferation at 100 uM by MTT assay
# Format: cell-based
# cond: HepG2 cells, read-out: Activity
propertyLabel: inhibition at 100 µM
Please make sure the unit comes right after the number.

Exercise: Which inhibition at 100 µM value belongs to O=c1oc2c(O)c(O)cc3c(=O)oc4c(O)c(O)cc1c4c23 [ELLAGIC ACID] ?
Solution: 9%
